Measured growth accompanies every entry in the list below.
- Test system: UACC-62 melanoma
- protocol_summary: NCI-60 one-dose screen, 48 h (100 = growth as untreated, 0 = no growth, -100 = all killed)
- condition_parameters: 10 µM unless noted
The panel holds about 83,000 compounds, 20% with a hit somewhere; the sample as a whole holds those more often.
Express it in %; write the number only.

# molecule, growth [%]
rows = [
    ("CN1C(=O)C(=Cc2cn(Cc3ccccc3)c3ccc(Br)cc23)C(=O)N(C)C1=O", 73.3),
    ("CC(=O)Nc1ccc2c(c1)Cc1c(F)c(F)c(F)c(F)c1-2", 77.4),
    ("Cc1ccc(C=C2C(Cl)=C(Cl)C(Cl)=C2Cl)cc1", -73.6),
    ("COc1cc(/C=C/C(=O)c2ccc(F)cc2)ccc1OCCCCCOc1cc2c(cc1OC)C(=O)N1CCCC1C=N2 (configuration not stated)", -92.4),
    ("Cn1c(N)c(N=O)c(=O)[nH]c1=O", 103),
]

Request: Fill in the blank: the reported growth of Cn1cc(-c2csc(-c3cn(C)c4ncccc34)n2)c2cc(F)cnc21 is ____.
Response: 65.3

Request: Follow-up item: Clc1ccc(CCC(Cn2ccnc2)Sc2c(Cl)cccc2Cl)cc1 (configuration not stated)
Response: 55

====

- System: UO-31 renal
- protocol_summary: NCI-60 one-dose screen, 48 h (100 = growth as untreated, 0 = no growth, -100 = all killed)
- condition_parameters: 10 µM unless noted
About 83,000 compounds went through this panel and 20% of them were active in at least one assay; those are over-represented in the sample as a whole.
measured_metric: growth (%)
State just the number; it will be interpreted in %.

Worked examples follow.
# molecule, recorded_value
rows = [
    ("CC(=O)O[C@H]1C(=O)[C@@]2(C)C([C@H](OC(=O)c3ccccc3)[C@]3(O)C[C@H](OC(=O)[C@H](O)[C@@H](NC(=O)c4ccccc4)c4ccccc4)C(C)=C1C3(C)C)[C@]1(OC(C)=O)CO[C@@H]1C[C@@H]2O (some centres undefined)", 33.6),
    ("CC/C(=C\\c1ccc(N(C)C)cc1)c1ccncc1", 57.6),
    ("Nc1nc(SCc2ccccc2Cl)c(-c2ccccc2)c(SCc2ccccc2Cl)n1", 69.9),
]

Could you now consider this next molecule?
Request: If you can, please state the reported growth value of O=C(CN1CCCCC1)Sc1nnc2sc3ccccc3n12 .
Response: 68.3

====

Property: growth; scope: individual compounds
- System: NCI-H23 lung
- protocol_summary: NCI-60 one-dose screen, 48 h (100 = growth as untreated, 0 = no growth, -100 = all killed)
- condition_parameters: 10 µM unless noted
Compounds without any hit were thinned out: in the full panel of roughly 83,000, 20% have a hit.
# unit: % | format: bare number

Request: What growth value was documented for this compound, CN(CCOc1ccc(CC2SC(=O)NC2=O)cc1)c1ccccn1 (stereo not drawn) ?
Response: 99.7

Request: For O=C1Cc2cc(CCn3cncn3)c(Cl)cc2N1 then?
Response: 24.1

Request: Proceed to COc1ccc2c(c1)C(=O)c1c-2c(=O)n(CCCCCCC(=O)NO)c2ccccc12
Response: -41.9

Request: Would you kindly repeat that for N=c1ccn2c(n1)O[C@@H]1[C@@H](O)[C@H](CO)O[C@@H]12 ?
Response: 33.3

Request: Record: COc1ccc2[nH]c(-c3ccccc3)cc2c1
Response: 98.9

Request: Lookup O=C(/C=C/c1ccc(O)c(O)c1)N1CCN(c2ccc(Cl)cc2)CC1
Response: 62.9

Request: Subsequent entry: Clc1ncn[nH]1
Response: 106

Request: Try O=C(Nc1nc2ccccc2s1)c1cc(-c2ccc(F)cc2)n2nc(-c3ccccc3)cc2n1 next.
Response: 68.7

====

- Test system: RPMI-8226 leukemia
- protocol_summary: NCI-60 one-dose screen, 48 h
- condition_parameters: 10 µM unless noted
The panel holds about 83,000 compounds, 20% with a hit somewhere; the sample as a whole holds those more often. Calls of active or inactive are those of the source. How the source made its calls: active means growth percent below 10; inactive means the rest.
One label from this list, please: 1 (yes) = active, 0 (no) = inactive

Past entries and their recorded results:
# compound, group_label
data = [
    ("c1coc([C@@H]2C[C@@H]3Cc4ccc5ccccc5c4N2O3)c1", "0 (no)"),
    ("O=C1/C(=C/c2ccc([N+](=O)[O-])o2)Oc2ccc(Br)cc21", "0 (no)"),
]

Request: Please indicate how the test categorized COc1ccc(Nc2nccc(N3CCN(c4c5ccc(Cl)cc5nc5ccc(OC)cc45)CC3)n2)cc1 .
Response: 0 (no)

Request: Now give it for C=C(C)[C@H]1CC/C(C)=C/CC[C@]2(C)O[C@H]2CC/C(C=O)=C\C1O (stereo partly drawn) too.
Response: 1 (yes)

Request: Another compound to check: O=c1ccn(C2CCCO2)c(=O)[nH]1 (stereo not drawn)
Response: 0 (no)

Request: Field entry: COc1cc(NC(=O)c2cc3ccccc3cc2O)c(OC)cc1Cl
Response: 1 (yes)

Request: Please do the same for Cc1nc2c(O)cccc2cc1CO as well.
Response: 0 (no)

Request: Same for CC[C@@H]1OC(=O)[C@H](C)[C@@H](O[C@H]2C[C@@](C)(OC)[C@@H](O)[C@H](C)O2)[C@H](C)[C@@H](O[C@@H]2O[C@H](C)C[C@H](N(C)C)[C@H]2O)[C@](C)(O)C[C@@H](C)[C@@H]2N[C@@H](COCCOC)O[C@H]([C@H]2C)[C@]1(C)O
Response: 0 (no)

Request: Please do the same for COc1ccc(/C=N\Nc2ccc([N+](=O)[O-])cn2)cc1OC as well.
Response: 0 (no)

Request: Here is the next compound: CCC(CC)NCCCCCNc1cc(OC)cc2cccnc12
Response: 0 (no)

Request: // repeat for Cc1c(C(N)=O)sc2ncn(CC(=O)Nc3ccc(Cl)cc3)c(=O)c12 and report
Response: 0 (no)

Request: Cool, now O=C(c1nn(-c2ccc(Cl)cc2)cc1O)n1nc(C(F)(F)F)cc1-c1ccccc1
Response: 1 (yes)

====

- System: SN12C renal
- protocol_summary: NCI-60 one-dose screen, 48 h (100 = growth as untreated, 0 = no growth, -100 = all killed)
- condition_parameters: 10 µM unless noted
This is part of a sample that, as a whole, favours compounds with a hit. Of some 83,000 tested, about 20% had one in any assay.
measured_metric: growth (%)
Your answer is read as %, so omit the unit and give the number.

Example entries and their recorded answers appear below.
# compound, measured_on, recorded_value
data = [
    ("O=C(/C=C/c1ccc(O)c(O)c1)N1CCN(c2ccc(Cl)cc2)CC1", "SN12C renal", 69.8),
    ("Cc1ccc(C(=O)Nc2ccc(Cl)cc2C(=O)NCc2ccccc2)cc1", "SN12C renal", 97.7),
    ("CCOC(=O)c1c(C)nc(C)c(C(=O)OCC)c1-c1cccnc1", "SN12C renal", 109),
    ("O=C1/C(=C/c2ccc3cccc(Cl)c3n2)SC(=S)N1CCc1ccc(O)cc1", "SN12C renal", 87.1),
    ("COc1ccc(/C=N/NC(=O)c2ccc(S(C)(=O)=O)cc2)cc1OC", "SN12C renal", 98.3),
]

Request: What does the data say about its growth? Entry: COc1cc(Oc2cc(-c3cccnc3)ccc2NC(=O)Nc2ccc(F)cc2F)cc(OC)c1OC
Response: 102

Request: Here is the next compound: Oc1ccc(Cc2ccc(O)c(C3CC(c4ccc(Cl)cc4)=NN3)c2)cc1C1CC(c2ccc(Cl)cc2)=NN1 (stereo not given)
Response: 24.9

Request: Next compound: O=C(Nc1nc(-c2ccccc2)cs1)c1cc(O)c(O)c(O)c1
Response: 50.5

Request: Same lookup for COc1cc(C2CC(c3ccc(C)cc3)=NN2C(C)=O)ccc1Oc1ccnc2cc(Cl)ccc12 (stereo not given) , please.
Response: 77.5

====

- Test system: NCI-H322M lung
- protocol_summary: NCI-60 one-dose screen, 48 h (100 = growth as untreated, 0 = no growth, -100 = all killed)
- condition_parameters: 10 µM unless noted
- Protocol: Growth inhibition of the NCI-H322M human Non-Small Cell Lung tumor cell line is measured as a screen for anti-cancer activity. Cells are grown in 96 well plates and exposed to the test compound for 48 hours. Compounds are tested at a single concentration, which is 10^-5 M for most compounds. The reported endpoint is percent growth (GI% or GIPRCNT), where numbers from 0 - 100% represent growth inhibition, and numbers from -100% - 0 represent cell death. […]
The panel holds about 83,000 compounds, 20% with a hit somewhere; the sample as a whole holds those more often.
# growth per record follows
Answer format: numeric, % implied, no suffix.

Below, each entry is followed by its recorded growth result.
# smiles_representation, recorded_value
measured = [
    ("NC(=O)NN=C(C1CC1)C1CC1", 110),
    ("Cc1cc(N2CCOCC2)nc(N2CCOCC2)n1", 92.2),
]

Request: GET /values?readout=growth&item= Cc1c(C)c(N2C(=O)C=CC2=O)c(C)c(C)c1N1C(=O)C=CC1=O
Response: 112

Source listed as PubChem BioAssay (NCI).
